# Test system: NCI-H23 lung
# method-summary: NCI tumour cell line growth inhibition, 48 h
Give measured TGI for each item. Keep answers brief.

Exam item: # get_value(readout='TGI', item= CNNC1=NS(=O)(=O)c2cc(C)c(Cl)cc2S1 )
Marked response: > 10 µM

Exam item: Moving on to the next molecule: FC(F)(F)P1C2C=CC(CC2)C1(F)F (stereo not given)
Marked response: > 100 µM

Exam item: Repeat with CCOC(=O)/N=c1\ss/c(=N\C(=S)N(C)C)n1-c1ccccc1
Marked response: > 100 µM

Exam item: Let us now turn to ClC(=Nc1cccc2ccccc12)N(c1ccccc1)c1ccccc1
Marked response: > 100 µM

Exam item: Then Cc1ccc(S(=O)(=O)NC(=O)NC(CO)C(=O)O)cc1 (stereo not given) ?
Marked response: > 100 µM

Exam item: Now the same for COc1ccccc1/C=C1\Sc2scc(-c3cccc([N+](=O)[O-])c3)[n+]2C1=O
Marked response: 29.6 µM

Exam item: Proceed to COc1cc(O)c(C(=O)/C=C/c2ccccc2)c(OC)c1
Marked response: 19.4 µM

Exam item: // repeat for COc1c(Cl)ccc(Cl)c1C(=O)NNC(=O)c1c(Cl)c(Cl)c(Cl)c(Cl)c1-c1nc2ccc(C(=O)c3ccccc3)cc2[nH]1 and report
Marked response: > 100 µM

Exam item: And the next one, C1=CN2C[n+]3cccc(OCc4ccccc4)c3N=C2C(OCc2ccccc2)=C1 ?
Marked response: 39.9 µM

Exam item: Again, but for O=S(=O)(O)CS(=O)(=O)OCCCl
Marked response: > 100 µM

Exam item: O=C(c1cccs1)c1c(C(F)(F)F)n([O-])c2ccc(C(F)(F)F)cc2[n+]1=O , same question.
Marked response: 1 µM

Exam item: Quick one: CN(C)CCN1C(=O)CC[C@@]2(C)C1=CC[C@@H]1[C@@H]2CC[C@@]2(C)[C@H]1CC[C@]2(C)O
Marked response: > 100 µM

Exam item: Queued: COc1ccc(-c2cc(-c3ccc(Nc4nc(Nc5ccc(Cl)cc5)nc(Nc5ccc(Cl)cc5)n4)cc3)nc(N)c2C#N)cc1
Marked response: > 87.7 µM

Exam item: Also check N#Cc1ncn(-c2ccccc2)c1N
Marked response: > 100 µM

Exam item: Moving on to Oc1c(C2=NNC(c3cccs3)C2)ccc2ccccc12 (stereo not given)
Marked response: > 100 µM

Exam item: # iterate: Cc1cc(Br)cc(C)c1NC(=O)C(=O)CC(=O)c1sc(-n2nc(-c3ccccc3)cc2-c2ccccc2)nc1C
Marked response: > 100 µM

Exam item: Next record, please: Cn1ncc2cc3c(Nc4ccc(Cl)cc4)cccc3nc21
Marked response: > 100 µM

Exam item: Quick one: Cc1c2c(c(C)n1-c1ccccc1)C(=O)N(CCSC(=N)N)C2=O
Marked response: > 100 µM

Exam item: What do you get for CC(C)Nc1[nH]c(C(=O)c2ccccc2)c(N)c1C(=S)Nc1ccccc1 ?
Marked response: > 100 µM

Exam item: Try this molecule too: COc1ccc(/C=C2\CN(C(=O)CCN3CCC(=NO)CC3)C/C(=C\c3ccc(OC)cc3)C2=O)cc1
Marked response: 6.37 µM

---

# System: MOLT-4 leukemia
# method-summary: NCI tumour cell line growth inhibition, 48 h
measured-attribute: TGI

Exam item: Return reported TGI; argument: Cc1cc(C)c(S(=O)(=O)N[C@@H](/C=C(\Br)CO)C(C)C)c(C)c1
Marked response: 75.3 µM

Exam item: Repeat for the following compound: O=[N+]([O-])c1cccc(N=C2c3ccccc3CN2c2cccc([N+](=O)[O-])c2)c1
Marked response: > 100 µM

Exam item: Request: CC(CC(=O)CO[C@H]1[C@H](O)[C@@H](O)[C@@H](O)[C@@H]2NC(=O)c3c(cc4c(c3O)OCO4)[C@H]21)OC1OC(CO)C(O)C(O)C1O (stereo not given in full)
Marked response: 3.54 µM

Exam item: Also S=C(NNC1=NCCCN1)Nc1ccccc1 ?
Marked response: > 100 µM

Exam item: Cn1cc(-c2ccc(=O)n(Cc3cccc(-c4ncc(OCCN5CCOCC5)cn4)c3)n2)cn1 , same question.
Marked response: > 100 µM

Exam item: And what about the compound O=C1/C(=C\c2ccc([N+](=O)[O-])cc2)Sc2scc(-c3ccc(O)c(O)c3)[n+]21 ?
Marked response: 51.3 µM

Exam item: What about this compound? O=C1NCC2(CCNCC2)N1c1ccccc1
Marked response: > 100 µM

Exam item: Quick one: CC(=O)OCCC1c2ccccc2-n2nc(-c3ccccc3)c(O)c21 (stereo not given)
Marked response: 56.3 µM

Exam item: Continue with N#Cc1ncn(-c2ccccc2)c1N
Marked response: > 100 µM

Exam item: And then CC1(C)N=C(N)N=C(N)N1c1cccc(/C=C/C=C/c2cccc([N+](=O)[O-])c2)c1 , what is it?
Marked response: 23.6 µM
